Sourced from the supplement of paper PMC11061612

- Test system: IM-95 (Gastric Carcinoma)
- Protocol Notes: Bliss excess, mean over the matrix (fraction); higher = more synergy
Parameter: Bliss excess
Answer as a number with no unit attached.

Input line: Requested field: Bliss excess. Item: Cc1c2c(nn1C)CSCc1cc(n(C)n1)CSc1cc(c3ccccc3c1)OCCCc1c(C(=O)O)n(C)c3c-2c(Cl)ccc13 [AZD5991] + C[C@@H]1COCCN1C2=NC(=NC(=C2)C3(CC3)[S@](=N)(=O)C)C4=C5C=CNC5=NC=C4 [AZD6738] (first compound max 1 µM, 7x7, partner max 10 µM)
Output line: -0.0412

---

- System: IM-95 (Gastric Carcinoma)
- Protocol Notes: combination Emax (second highest fraction inhibited in the dose matrix, 72 h); higher = more inhibition; extreme values may be limits of the assay
The molecules listed here are annotated with their combination Emax.
The reply should be a number, written without any unit.

Example results:
CS(=O)(=O)CCNCc1ccc(-c2ccc3ncnc(Nc4ccc(OCc5cccc(F)c5)c(Cl)c4)c3c2)o1 [Lapatinib] + NC1(c2ccc(-c3nc4ccn5c(=O)[nH]nc5c4cc3-c3ccccc3)cc2)CCC1 [MK-2206] (first compound max 10 µM, 7x7, partner max 10 µM); 0.509
NC1(C(=O)N[C@@H](CCO)c2ccc(Cl)cc2)CCN(c2ncnc3[nH]ccc23)CC1 [Capivasertib] + C[C@@H]1COCCN1C2=NC(=NC(=C2)C3(CC3)[S@](=N)(=O)C)C4=C5C=CNC5=NC=C4 [AZD6738] (first compound max 10 µM, 7x7, partner max 10 µM); 0.456
Cc1cc2ncnn2cc1Nc1ncc2c(n1)n(C1CCOCC1)c(=O)n2C [AZD7648] + CN(C)CCCOc1ccc(-c2ccc3ncc4c(c3c2)n(C2CCOCC2)c(=O)n4C)cn1 [AZD0156] (first compound max 10 µM, 7x7, partner max 1 µM); 0.303
COc1nnc2ccc(N3CCC(c4ccc(OCCN5CCN(C)C(=O)[C@H]5C)cc4)CC3)nn12 [AZD5153] + Cc1c2c(nn1C)CSCc1cc(n(C)n1)CSc1cc(c3ccccc3c1)OCCCc1c(C(=O)O)n(C)c3c-2c(Cl)ccc13 [AZD5991] (first compound max 1 µM, 7x7, partner max 1 µM); 0.798
CC1(C)CCC(CN2CCN(c3ccc(C(=O)NS(=O)(=O)c4ccc(NCC5CCOCC5)c([N+](=O)[O-])c4)c(Oc4cnc5[nH]ccc5c4)c3)CC2)=C(c2ccc(Cl)cc2)C1 [Venetoclax] + CN(C)CCCOc1ccc(-c2ccc3ncc4c(c3c2)n(C2CCOCC2)c(=O)n4C)cn1 [AZD0156] (first compound max 1 µM, 7x7, partner max 1 µM); 0.19
CC1(C)CCC(CN2CCN(c3ccc(C(=O)NS(=O)(=O)c4ccc(NCC5CCOCC5)c([N+](=O)[O-])c4)c(Oc4cnc5[nH]ccc5c4)c3)CC2)=C(c2ccc(Cl)cc2)C1 [Venetoclax] + COc1cc(Nc2ncc3c(n2)-c2ccc(Cl)cc2C(c2c(F)cccc2OC)=NC3)ccc1C(=O)O [Alisertib] (first compound max 1 µM, 7x7, partner max 10 µM); 0.412

Input line: What combination Emax appears in the records for this molecule with IM-95 (Gastric Carcinoma)? CC1(C)CCC(CN2CCN(c3ccc(C(=O)NS(=O)(=O)c4ccc(NCC5CCOCC5)c([N+](=O)[O-])c4)c(Oc4cnc5[nH]ccc5c4)c3)CC2)=C(c2ccc(Cl)cc2)C1 [Venetoclax] + Cn1cnc2c(F)c(Nc3ccc(Br)cc3Cl)c(C(=O)NOCCO)cc21 [Selumetinib] (first compound max 1 µM, 7x7, partner max 3 µM)
Output line: 0.179

---

Recorded combination Emax for the following molecules
- Tested on: MN-60 (B-Lymphoblastic Leukemia)
- Protocol Notes: combination Emax (second highest fraction inhibited in the dose matrix, 72 h); higher = more inhibition; extreme values may be limits of the assay
Lab note: write the figure by itself, no unit.

Input line: So what combination Emax did COc1nnc2ccc(N3CCC(c4ccc(OCCN5CCN(C)C(=O)[C@H]5C)cc4)CC3)nn12 [AZD5153] + Cn1cnc2c(F)c(Nc3ccc(Br)cc3Cl)c(C(=O)NOCCO)cc21 [Selumetinib] (first compound max 1 µM, 7x7, partner max 10 µM) get with MN-60 (B-Lymphoblastic Leukemia)?
Output line: 0.78

Input line: How about C[C@@H]1COCCN1c1cc(C2([S@](C)(=N)=O)CC2)nc(-c2ccnc3[nH]ccc23)n1 [AZD6738] + C1CC(C1)(C(=O)[O-])C(=O)[O-].N.N.[Pt+2] [Carboplatin] (first compound max 10 µM, 7x7, partner max 10 µM) ?
Output line: 0.638

Input line: Note, next up: CC1(C)CCC(CN2CCN(c3ccc(C(=O)NS(=O)(=O)c4ccc(NCC5CCOCC5)c([N+](=O)[O-])c4)c(Oc4cnc5[nH]ccc5c4)c3)CC2)=C(c2ccc(Cl)cc2)C1 [Venetoclax] + Cn1cnc2c(F)c(Nc3ccc(Br)cc3Cl)c(C(=O)NOCCO)cc21 [Selumetinib] (first compound max 1 µM, 7x7, partner max 3 µM)
Output line: 0.347

Input line: Would you kindly repeat that for NC1(C(=O)N[C@@H](CCO)c2ccc(Cl)cc2)CCN(c2ncnc3[nH]ccc23)CC1 [Capivasertib] + CCN(CCO)CCCOc1ccc2c(Nc3cc(CC(=O)Nc4cccc(F)c4)[nH]n3)ncnc2c1 [AZD2811] (first compound max 10 µM, 7x7, partner max 1 µM) ?
Output line: 0.336

---

- Test system: ESO51 (Esophageal Adenocarcinoma)
- Protocol Notes: combination Emax (second highest fraction inhibited in the dose matrix, 72 h); higher = more inhibition; extreme values may be limits of the assay
Parameter: combination Emax
# answer = number (no unit)

Cc1c2c(nn1C)CSCc1cc(n(C)n1)CSc1cc(c3ccccc3c1)OCCCc1c(C(=O)O)n(C)c3c-2c(Cl)ccc13 [AZD5991] + C1CN(CCC1(C(=O)N[C@@H](CCO)C2=CC=C(C=C2)Cl)N)C3=NC=NC4=C3C=CN4 [Capivasertib] (first compound max 1 µM, 7x7, partner max 3 µM); 0.0827
C[C@@H](c1ccc2nccn2c1)n1nnc2ncc(-c3cnn(C)c3)nc21 [Savolitinib] + CN(CC[C@H](CSC1=CC=CC=C1)NC2=C(C=C(C=C2)S(=O)(=O)NC(=O)C3=CC=C(C=C3)N4CCC(CC4)[C@H](C5=CC=CC=C5C6=CC=C(C=C6)Cl)O)S(=O)(=O)C(F)(F)F)CCO [AZD4320] (first compound max 1 µM, 7x7, partner max 1 µM); 0.95

Turning to the following compound.
Input line: Reported combination Emax, compound Cc1c2c(nn1C)CSCc1cc(n(C)n1)CSc1cc(c3ccccc3c1)OCCCc1c(C(=O)O)n(C)c3c-2c(Cl)ccc13 [AZD5991] + C[C@@H]1COCCN1C2=NC(=NC(=C2)C3(CC3)[S@](=N)(=O)C)C4=C5C=CNC5=NC=C4 [AZD6738] (first compound max 1 µM, 7x7, partner max 10 µM) : ____
Output line: 0.747

---

- Tested on: RPMI-8226 (Plasma Cell Myeloma)
- Protocol Notes: Bliss excess, mean over the matrix (fraction); higher = more synergy
Parameter: Bliss excess
Enter the number alone.

Previously resolved entries follow.
CC(=O)c1c(C)c2cnc(Nc3ccc(N4CCNCC4)cn3)nc2n(C2CCCC2)c1=O [Palbociclib] + CC1(C)CCC(CN2CCN(c3ccc(C(=O)NS(=O)(=O)c4ccc(NCC5CCOCC5)c([N+](=O)[O-])c4)c(Oc4cnc5[nH]ccc5c4)c3)CC2)=C(c2ccc(Cl)cc2)C1 [Venetoclax] (first compound max 10 µM, 7x7, partner max 1 µM); 0.0461
COc1cc2ncnc(Nc3ccc(F)c(Cl)c3)c2cc1OCCCN1CCOCC1 [Gefitinib] + CC(C)n1c(=O)n(C)c2cnc3cc(F)c(-c4ccc(OCCCN5CCCCC5)nc4)cc3c21 [AZD1390] (first compound max 10 µM, 7x7, partner max 0.3 µM); -0.0547

Input line: Can you look up Bliss excess on RPMI-8226 (Plasma Cell Myeloma) for COc1nnc2ccc(N3CCC(c4ccc(OCCN5CCN(C)C(=O)[C@H]5C)cc4)CC3)nn12 [AZD5153] + Cc1c2c(nn1C)CSCc1cc(n(C)n1)CSc1cc(c3ccccc3c1)OCCCc1c(C(=O)O)n(C)c3c-2c(Cl)ccc13 [AZD5991] (first compound max 1 µM, 7x7, partner max 1 µM) ?
Output line: -0.0253

---

Entries annotated with measured combination Emax
- Tested on: CW-2 (Colorectal Carcinoma)
- Protocol Notes: combination Emax (second highest fraction inhibited in the dose matrix, 72 h); higher = more inhibition; extreme values may be limits of the assay

CC1(C)CCC(CN2CCN(c3ccc(C(=O)NS(=O)(=O)c4ccc(NCC5CCOCC5)c([N+](=O)[O-])c4)c(Oc4cnc5[nH]ccc5c4)c3)CC2)=C(c2ccc(Cl)cc2)C1 [Venetoclax] + CN(C)CCCOc1ccc(-c2ccc3ncc4c(c3c2)n(C2CCOCC2)c(=O)n4C)cn1 [AZD0156] (first compound max 1 µM, 7x7, partner max 1 µM); 0.174

Input line: Name the reported combination Emax value associated with the compound Cc1cc2ncnn2cc1Nc1ncc2c(n1)n(C1CCOCC1)c(=O)n2C [AZD7648] + CCN(CCO)CCCOc1ccc2c(Nc3cc(CC(=O)Nc4cccc(F)c4)[nH]n3)ncnc2c1 [AZD2811] (first compound max 10 µM, 7x7, partner max 1 µM)
Output line: 0.164

Input line: Cool, now N#Cc1cnc(Nc2cc(NC[C@H]3CNCCO3)c(C(F)(F)F)cn2)cn1 [SRA737] + Nc1ccn([C@@H]2O[C@H](CO)[C@@H](O)C2(F)F)c(=O)n1 [Gemcitabine] (first compound max 10 µM, 7x7, partner max 0.3 µM)
Output line: 0.623

Input line: And then CC1(C)CCC(CN2CCN(c3ccc(C(=O)NS(=O)(=O)c4ccc(NCC5CCOCC5)c([N+](=O)[O-])c4)c(Oc4cnc5[nH]ccc5c4)c3)CC2)=C(c2ccc(Cl)cc2)C1 [Venetoclax] + Cn1cnc2c(F)c(Nc3ccc(Br)cc3Cl)c(C(=O)NOCCO)cc21 [Selumetinib] (first compound max 1 µM, 7x7, partner max 3 µM) , what is it?
Output line: 0.191
